Assay: Cytotoxicity against human HEL cells after 3 days
Format: cell-based
Each record here notes measured CC50 at 72 h.
Please reply with the bare figure in µM and do not write the unit itself.

Example compounds with recorded CC50 at 72 h:
structure: Nc1ccn(C[C@@H](CO)OCP(=O)(O)O)c(=O)n1
val: 280

structure: Nc1nc2c(ncn2COC(CO)CO)c(=O)[nH]1
val: 164

structure: Cc1cn(C/C=C\CP(=O)(OCOC(=O)C(C)(C)C)OCOC(=O)C(C)(C)C)c(=O)[nH]c1=O
val: 35

structure: Cc1cn(C/C=C/CP(=O)(OCOC(=O)C(C)(C)C)OCOC(=O)C(C)(C)C)c(=O)[nH]c1=O
val: 35

structure: CC(C)(C)C(=O)OCOP(=O)(C/C=C\Cn1cc(Br)c(=O)[nH]c1=O)OCOC(=O)C(C)(C)C
val: 70

Please find the next compound below.
The compound listed as CC(C)(C)C(=O)OCOP(=O)(C/C=C/Cn1cc(Br)c(=O)[nH]c1=O)OCOC(=O)C(C)(C)C shows CC50 at 72 h equal to 34
